Where do the numbers come from? From patent US20250171438A1.

- tested_target: human PAH with the R408W mutation (Homo sapiens, UniProt P00439, R408W)
- Construct: expressed in transfected cells
- Sequence (P00439 1-452 R408W): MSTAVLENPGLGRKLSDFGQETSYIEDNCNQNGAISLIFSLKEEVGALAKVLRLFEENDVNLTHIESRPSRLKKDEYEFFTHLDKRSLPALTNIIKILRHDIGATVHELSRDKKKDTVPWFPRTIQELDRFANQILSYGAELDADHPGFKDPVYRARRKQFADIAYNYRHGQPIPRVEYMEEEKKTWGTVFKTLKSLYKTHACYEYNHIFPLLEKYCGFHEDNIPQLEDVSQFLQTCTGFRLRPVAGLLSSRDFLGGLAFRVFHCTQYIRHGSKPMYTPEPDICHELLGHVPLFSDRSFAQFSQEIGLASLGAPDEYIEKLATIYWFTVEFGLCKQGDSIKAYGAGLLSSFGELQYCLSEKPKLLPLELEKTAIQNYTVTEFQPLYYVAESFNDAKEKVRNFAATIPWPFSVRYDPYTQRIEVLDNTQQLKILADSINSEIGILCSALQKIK
- assay_overview: Cell Based Phenylalanine Flux Assay
- condition_summary: A375 cells expressing human R408W PAH; 24 hrs compound incubation; 13C-Tyrosine by LC-MS; average where tested multiple times; read-out: AC50
Please provide measured AC50 for the entries that follow.

In the examples that follow, each entry is paired with its recorded AC50.
{"test_smiles": "N#Cc1ccn2ncc(C(=O)N3CCc4[nH]cnc4[C@@H]3c3nc4ccc(F)cc4s3)c2c1", "tested_target": "human PAH with the R408W mutation (Homo sapiens, UniProt P00439, R408W)", "AC50": "> 5 µM"}
{"test_smiles": "O=C(c1cnc(-c2ccccn2)s1)N1CCc2[nH]cnc2[C@H]1c1nc2ccccc2[nH]1", "tested_target": "human PAH with the R408W mutation (Homo sapiens, UniProt P00439, R408W)", "AC50": "0.5 to 1 µM"}
{"test_smiles": "O=C(CCc1nccs1)N1CCc2[nH]cnc2[C@@H]1c1ncc(-c2ccccc2)s1", "tested_target": "human PAH with the R408W mutation (Homo sapiens, UniProt P00439, R408W)", "AC50": "> 5 µM"}

We now examine a further compound.
Ask: Form entry - test system: human PAH with the R408W mutation (Homo sapiens, UniProt P00439, R408W); read-out: AC50; compound: `Cn1nc(C(=O)N2CCc3[nH]cnc3[C@@H]2c2nc3ccccc3s2)c2ccccc21`
Result: 1 to 5 µM
